Target: Acetylcholinesterase (Homo sapiens) (UniProt P22303)
Sequence (P22303 whole entry, looked up): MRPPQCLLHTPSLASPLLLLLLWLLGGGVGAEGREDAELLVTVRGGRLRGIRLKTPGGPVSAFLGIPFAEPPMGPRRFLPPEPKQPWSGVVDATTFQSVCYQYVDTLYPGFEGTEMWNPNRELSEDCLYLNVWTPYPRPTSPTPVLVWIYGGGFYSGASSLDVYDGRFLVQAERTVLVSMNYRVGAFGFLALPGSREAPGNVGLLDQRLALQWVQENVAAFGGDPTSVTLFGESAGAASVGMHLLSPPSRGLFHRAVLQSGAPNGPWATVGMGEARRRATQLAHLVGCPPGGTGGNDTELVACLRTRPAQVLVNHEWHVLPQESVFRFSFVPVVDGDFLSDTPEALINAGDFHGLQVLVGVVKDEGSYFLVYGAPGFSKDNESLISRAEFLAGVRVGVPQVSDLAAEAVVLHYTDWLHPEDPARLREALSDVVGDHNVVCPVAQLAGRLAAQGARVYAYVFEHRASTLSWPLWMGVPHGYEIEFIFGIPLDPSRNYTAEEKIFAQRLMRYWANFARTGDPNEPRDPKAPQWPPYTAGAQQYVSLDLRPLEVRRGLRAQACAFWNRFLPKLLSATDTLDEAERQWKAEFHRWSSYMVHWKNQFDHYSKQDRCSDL
Experiment: Acetylcholinesterase (AChE) small molecule antagonists: fluorescence cell-based qHTS assay (AID 1347398); further: nearly all actives have a fitted effect of over 50% in size
Conditions: SH-SY5Y cells; AChE activity; series mostly up to 115 µM
Records with an inconclusive call do not appear. Calls of active or inactive are those of the source. The call rests on the fitted dose curve.
Write down the outcome that applies. Available outcomes: label 1 (active), label 0 (inactive)

The examples below pair each entry with its known result.
compound=N#Cc1c[nH]cc1-c1cccc2c1OC(F)(F)O2 assigned_label="label 0"
compound=CO/N=C(\C(=O)OC)c1ccccc1CO/N=C(\C)c1cccc(C(F)(F)F)c1 assigned_label="label 0"
compound=BrCCCBr assigned_label="label 0"
compound=O=[N+]([O-])c1cc(C(F)(F)F)c(Cl)c([N+](=O)[O-])c1Nc1ncc(C(F)(F)F)cc1Cl assigned_label="label 0"
compound=Cc1ccccc1OP(=O)(Oc1ccccc1C)Oc1ccccc1C assigned_label="label 0"
compound=O=NN(CCO)CCO assigned_label="label 0"
compound=CCN(CC)CCN1C(=O)CN=C(c2ccccc2F)c2cc(Cl)ccc21 assigned_label="label 0"
compound="CC(O)C(=O)[O][Hg][c]1ccccc1 (stereo not given)" assigned_label="label 1"
compound=CC(C)N(C(=O)SC/C(Cl)=C/Cl)C(C)C assigned_label="label 0"

# input Check the results log: what was the call for `CC#C[C@]1(O)CC[C@H]2[C@@H]3C[C@H](C)C4=CC(=O)CC[C@]4(C)[C@H]3CC[C@@]21C` ?
# output label 0

* * *

Test: qHTS assay to identify small molecule agonists of the estrogen related receptor (ERR) signaling pathway from Tox21 library (AID 1224849); further: nearly all actives have a fitted effect of over 15% in size
Conditions: ERR reporter cell line, ONE-Glo luciferase, 18 h; at 92.4 µM (top of the series) unless noted
Active and inactive are the calls of the source. Calls follow the shape of the full dose curve.
Write down the outcome that applies. Available outcomes: active, inactive

The examples below pair each entry with its known result.
compound=N#CC(C#N)=NNc1cccc(Cl)c1 assigned_label=inactive
compound=O=Cc1ccccc1 assigned_label=inactive
compound=ClSC(Cl)(Cl)Cl assigned_label=inactive
compound="CCC(OC(C)=O)C(CC(C)NC)(c1ccccc1)c1ccccc1 (configuration not stated)" assigned_label=inactive
compound=Oc1ccc2[nH]cc(CCCCN3CC=C(c4ccccc4)CC3)c2c1 assigned_label=inactive
compound=CCCCN(CCCC)C(=S)S assigned_label=inactive

Kindly review the next compound as well.
# input Check the results log: what was the call for `ClC1=C(Cl)[C@]2(Cl)[C@@H]3[C@H]4C[C@H]([C@@H]5O[C@H]45)[C@@H]3[C@@]1(Cl)C2(Cl)Cl` ?
# output inactive

* * *

Test: qHTS assay for identifying genotoxic compounds that show differential cytotoxicity against isogenic chicken DT40 cell lines with known DNA damage response pathways - wild type cell line (AID 743012); further: nearly all actives have a fitted effect of over 60% in size
Conditions: DT40 wild type chicken cells viability, CellTiter-Glo, 40 h; series mostly up to 68.4 µM
Records with an inconclusive call do not appear. The source made the active and inactive calls. Calls come from the whole dose curve; as a rule, active = well fitted cell-killing curve with a large enough effect in the repeat runs; inconclusive = weak or mixed curves, or effect the other way; inactive = no such curve, though single readings can be large or run the other way.
Write down the outcome that applies. Available outcomes: active, inactive

The examples below pair each entry with its known result.
molecule=CCCCN(CCCC)C(=S)[S-].CCCCN(CCCC)C(=S)[S-].[Ni+2] assigned_label=inactive
molecule=O=c1c2ccccc2c(=O)c2c1cc(Cl)c1[nH]c3c([nH]c12)c(Cl)cc1c(=O)c2ccccc2c(=O)c13 assigned_label=inactive
molecule=CSSC assigned_label=inactive
molecule=O=[N+]([O-])c1cc(C(F)(F)F)c(Cl)c([N+](=O)[O-])c1Nc1ncc(C(F)(F)F)cc1Cl assigned_label=active
molecule=CCN1CCC2(CC1)COc1cc3c(cc12)N(C(=O)c1ccc(-c2ccc(-c4nnc(C)o4)cc2C)cc1)CC3 assigned_label=active

# input Check the results log: what was the call for `ClSC(Cl)(Cl)Cl` ?
# output inactive

# input Check the results log: what was the call for `CC(=O)[O][Sn]([c]1ccccc1)([c]1ccccc1)[c]1ccccc1` ?
# output active

# input Check the results log: what was the call for `CCCCCCC[CH2][Sn]([Cl])([Cl])[CH2]CCCCCCC` ?
# output inactive

# input Check the results log: what was the call for `O=C1C[C@@H]2OCC=C3CN4CC[C@]56c7ccccc7N1[C@H]5[C@H]2[C@H]3C[C@H]46` ?
# output active

# input Check the results log: what was the call for CC(O)C(=O)[O][Hg][c]1ccccc1 (stereo not given) ?
# output active

# input Check the results log: what was the call for `Cc1c([N+](=O)[O-])c(C)c([N+](=O)[O-])c(C(C)(C)C)c1[N+](=O)[O-]` ?
# output active

# input Check the results log: what was the call for COP(=S)(NC(C)C)Oc1ccc(C)cc1[N+](=O)[O-] (stereo not given) ?
# output active

# input Check the results log: what was the call for `CCCCCCCc1ccc(O)cc1` ?
# output active

# input Check the results log: what was the call for `CC[C@H](C)[C@H]1O[C@]2(C=C[C@@H]1C)C[C@@H]1C[C@@H](C/C=C(\C)[C@@H](O[C@H]3C[C@H](OC)[C@@H](O[C@H]4C[C@H](OC)[C@@H](NC)[C@H](C)O4)[C@H](C)O3)[C@@H](C)/C=C/C=C3\CO[C@@H]4[C@H](O)C(C)=C[C@@H](C(=O)O1)[C@]34O)O2` ?
# output active

# input Check the results log: what was the call for `CSC(=O)c1c(C(F)F)nc(C(F)(F)F)c(C(=O)SC)c1CC(C)C` ?
# output active

# input Check the results log: what was the call for `CCN(CC)CCN1C(=O)CN=C(c2ccccc2F)c2cc(Cl)ccc21` ?
# output active

# input Check the results log: what was the call for `O=c1[nH]c(Cl)c(Cl)cc1Cl` ?
# output inactive

# input Check the results log: what was the call for `CCCN` ?
# output inactive

# input Check the results log: what was the call for CC(C)NCC(O)c1ccccc1Cl (stereo not given) ?
# output inactive

# input Check the results log: what was the call for `Nc1nc(N)nc(Cl)n1` ?
# output inactive

# input Check the results log: what was the call for `C=CCBr` ?
# output inactive

# input Check the results log: what was the call for `ClCBr` ?
# output inactive

* * *

Experiment: qHTS assay to identify small molecule agonists of the NFkB signaling pathway - cell viability counter screen (AID 1159515); further: nearly all actives have a fitted effect of over 55% in size
Conditions: NFkB-bla ME-180 viability, CellTiter-Glo luminescence, 5 h; series mostly up to 61 µM
Results filed as inconclusive are left out. The source made the active and inactive calls. The call rests on the fitted dose curve.
Write down the outcome that applies. Available outcomes: true = active, false = inactive

The examples below pair each entry with its known result.
molecule=Cc1c([N+](=O)[O-])c(C)c([N+](=O)[O-])c(C(C)(C)C)c1[N+](=O)[O-] assigned_label=false
molecule=N#CCCl assigned_label=false
molecule=Cc1ccc(C)c2ccccc12 assigned_label=false

# input Check the results log: what was the call for FC(F)C(F)(F)OCC(Cn1cncn1)c1ccc(Cl)cc1Cl (centres undefined) ?
# output false

# input Check the results log: what was the call for `CSC(=O)c1c(C(F)F)nc(C(F)(F)F)c(C(=O)SC)c1CC(C)C` ?
# output false

* * *

Test: qHTS RealTime-Glo MT Cell Viability Assay in HepG2 cells - 16 hour (AID 1224885); further: nearly all actives have a fitted effect of over 50% in size
Conditions: RealTime-Glo luminescence; series mostly up to 76.8 µM
Records with an inconclusive call do not appear. Active and inactive are the calls of the source. Calls come from the whole dose curve; as a rule, active = well fitted cell-killing curve with a large enough effect in the repeat runs; inconclusive = weak or mixed curves; inactive = flat fitted curve, though single readings scatter.
Write down the outcome that applies. Available outcomes: Yes for active, No for inactive

The examples below pair each entry with its known result.
molecule=CC1=C2C[C@H]3[C@@H](CC=C4C[C@@H](O)CC[C@@]43C)[C@@H]2CC[C@]12O[C@@H]1C[C@H](C)CN[C@H]1[C@H]2C assigned_label=No
molecule=O=P(Cl)(Cl)Cl assigned_label=No

# input Check the results log: what was the call for `O=[N+]([O-])c1ccc(Cl)c(Cl)c1Cl` ?
# output No

# input Check the results log: what was the call for `CC(=O)[O][Pb]([c]1ccccc1)([c]1ccccc1)[c]1ccccc1` ?
# output Yes

* * *

Test: qHTS assay for identifying genotoxic compounds that show differential cytotoxicity against isogenic chicken DT40 cell lines with known DNA damage response pathways - Rad54/Ku70 mutant cell line (AID 743015); further: nearly all actives have a fitted effect of over 60% in size
Conditions: DT40 Rad54/Ku70 mutant viability, CellTiter-Glo, 40 h; series mostly up to 66.8 µM
Results filed as inconclusive are left out. The source made the active and inactive calls. The call rests on the fitted dose curve; in most records, active means well fitted cell-killing curve with a large enough effect in the repeat runs; inconclusive means weak or mixed curves; inactive means no such curve, though single readings can be large or run the other way.
Write down the outcome that applies. Available outcomes: active, inactive

The examples below pair each entry with its known result.
molecule=N#Cc1c[nH]cc1-c1cccc2c1OC(F)(F)O2 assigned_label=active
molecule="CCn1cc[n+](C)c1 (tested in a mixture with another compound)" assigned_label=inactive
molecule=CCC[CH2][Sn]([CH2]CCC)([CH2]CCC)[CH2]CCC assigned_label=active
molecule=Clc1cc(Cl)c(-c2cc(Cl)c(Cl)cc2Cl)cc1Cl assigned_label=inactive
molecule=CC(C)(C)c1ccc(OP(=O)(Oc2ccccc2)Oc2ccccc2)cc1 assigned_label=active

# input Check the results log: what was the call for `O=C(O)CCCCCCNC1c2ccccc2CCc2ccccc21` ?
# output inactive

# input Check the results log: what was the call for `Cc1ccn2nc(S(=O)(=O)Nc3c(F)cccc3F)nc2n1` ?
# output inactive

# input Check the results log: what was the call for `[F][Sn]([c]1ccccc1)([c]1ccccc1)[c]1ccccc1` ?
# output active

# input Check the results log: what was the call for `CCCCON=O` ?
# output inactive

# input Check the results log: what was the call for COP(=S)(NC(C)C)Oc1ccc(C)cc1[N+](=O)[O-] (configuration not stated) ?
# output active

# input Check the results log: what was the call for `CCCCN(CCCC)C(=S)[S-].CCCCN(CCCC)C(=S)[S-].[Ni+2]` ?
# output inactive

# input Check the results log: what was the call for `CNC(=O)Oc1cc(C)cc(C(C)C)c1` ?
# output inactive
